The reader will find reported kinase still bound, per cent of control values listed item by item below.
STUDY_SYSTEM: TEC (human)
RUN_DESCRIPTION: KINOMEscan competition binding
MEASUREMENT_SETUP: compound 10.0 µM
OUTCOME_MEASURE: kinase still bound, per cent of control (%)

[[record]]
molecular_string = "Nc1ccc(-c2ccc3ncc4ccc(=O)n(-c5cccc(C(F)(F)F)c5)c4c3c2)cn1"
outcome_measure = "kinase still bound, per cent of control"
measured_result = 100

[[record]]
molecular_string = "COc1cc(N2CCN(C)CC2)ccc1Nc1nc(N)c(C(=O)c2c(Cl)cccc2Cl)s1"
outcome_measure = "kinase still bound, per cent of control"
measured_result = 69

[[record]]
molecular_string = "N#Cc1c(NC(=O)c2cccc3ccccc23)sc2c1CCCC2"
outcome_measure = "kinase still bound, per cent of control"
measured_result = 91

[[record]]
molecular_string = "CCC(=O)N1CCN(c2ccc(-n3c(=O)ccc4cnc5ccc(-c6cnc7ccccc7c6)cc5c43)cc2C(F)(F)F)CC1"
outcome_measure = "kinase still bound, per cent of control"
measured_result = 99

[[record]]
molecular_string = "O=C(O)c1ccc(Nc2ncc3c(n2)-c2ccc(Cl)cc2C(c2c(F)cccc2F)=NC3)cc1"
outcome_measure = "kinase still bound, per cent of control"
measured_result = 2


The measurements presented in this section are drawn from the kinase profiling compilation of Christmann-Franck et al. (2016).
